target: human recombinant serotonin (5-Hydroxytryptamine) 5-HT7 receptor (Homo sapiens); construct: expressed in transfected cells; host or cells: CHO cells; assay: Serotonin 5-HT7 radioligand binding ([3H]LSD); details: 2 h; read-out: Percent Inhibition of ligand binding Serotonin (1 μM ligand concentration) 5-HT7
Sequence (P34969 whole entry): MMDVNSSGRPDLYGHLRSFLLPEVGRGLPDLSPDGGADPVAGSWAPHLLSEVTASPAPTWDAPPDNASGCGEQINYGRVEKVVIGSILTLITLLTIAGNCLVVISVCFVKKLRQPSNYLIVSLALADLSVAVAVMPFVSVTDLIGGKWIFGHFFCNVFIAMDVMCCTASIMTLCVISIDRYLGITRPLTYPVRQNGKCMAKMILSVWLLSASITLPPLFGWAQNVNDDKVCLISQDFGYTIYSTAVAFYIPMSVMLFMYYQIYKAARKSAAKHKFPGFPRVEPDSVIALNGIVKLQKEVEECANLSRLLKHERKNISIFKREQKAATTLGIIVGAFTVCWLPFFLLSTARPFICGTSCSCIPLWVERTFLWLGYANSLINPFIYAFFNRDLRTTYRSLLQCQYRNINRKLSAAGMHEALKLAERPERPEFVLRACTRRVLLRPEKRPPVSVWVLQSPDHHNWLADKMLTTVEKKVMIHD
Mark not fulfilled for inhibition at 1 µM values under 60%, and fulfilled for everything at or above.

> print(dat)
                                   molecule  classification
1  CCC1c2c(c3cc(Cl)ccc3n2C#Cc2ccc(F)cc2)CCN1C (stereo not drawn)   not fulfilled
2  CCC1c2c(c3cc(Cl)ccc3n2CCc2ccc(F)cc2)CCN1C (stereo not drawn)       fulfilled
3  CCC1c2c(c3cc(Cl)ccc3n2/C=C(\C)c2ccc(Cl)c(Cl)c2)CCN1C (stereo not drawn)   not fulfilled

## Input State whether the measured inhibition at 1 µM reaches 60%, counting equality as reaching it, for `C/C(=C\n1c2c(c3cc(C)ccc31)CCN(C)C2)c1ccc(Cl)c(Cl)c1`
## Output fulfilled

## Input State whether the measured inhibition at 1 µM reaches 60%, counting equality as reaching it, for CCC1c2c(c3cc(C)ccc3n2/C=C(\C)c2ccc(F)c(F)c2)CCN1C (stereo not drawn)
## Output not fulfilled

###

target: human recombinant dopamine D2L receptor (Homo sapiens); construct: expressed in transfected cells; host or cells: CHO cells; assay: Dopamine D2L radioligand binding ([3H]Spiperone); conditions: 2 h, 1 μM ligand conc.; read-out: Percent Inhibition of ligand binding Dopamine (1 μM ligand conc.) D2L
Sequence (P14416 whole entry): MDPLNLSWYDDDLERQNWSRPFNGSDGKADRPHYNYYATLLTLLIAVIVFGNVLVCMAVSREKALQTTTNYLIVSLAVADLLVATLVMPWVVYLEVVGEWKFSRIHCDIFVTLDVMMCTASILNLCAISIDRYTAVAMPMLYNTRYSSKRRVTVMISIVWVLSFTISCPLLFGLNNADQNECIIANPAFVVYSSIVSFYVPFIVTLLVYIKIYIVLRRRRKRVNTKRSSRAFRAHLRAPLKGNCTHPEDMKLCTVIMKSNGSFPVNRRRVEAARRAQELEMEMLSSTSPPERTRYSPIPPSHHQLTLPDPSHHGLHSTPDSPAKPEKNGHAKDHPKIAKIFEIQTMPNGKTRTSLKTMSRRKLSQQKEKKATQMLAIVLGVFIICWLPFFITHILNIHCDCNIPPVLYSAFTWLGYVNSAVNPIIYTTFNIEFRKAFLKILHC
QUANTITY: inhibition at 1 µM (%)
Express the result in % but write the number alone.

## Input What value of measured inhibition at 1 µM is listed for Cc1ccc2c(c1)c1c(n2CC(O)c2ccccc2)CN(C)CC1 (stereo not shown) ?
## Output 21

###

Target: human recombinant histamine H2 receptor (Homo sapiens, UniProt P25021)
Construct: expressed in transfected cells; host or cells: CHO-K1 cells
Sequence (P25021 whole entry): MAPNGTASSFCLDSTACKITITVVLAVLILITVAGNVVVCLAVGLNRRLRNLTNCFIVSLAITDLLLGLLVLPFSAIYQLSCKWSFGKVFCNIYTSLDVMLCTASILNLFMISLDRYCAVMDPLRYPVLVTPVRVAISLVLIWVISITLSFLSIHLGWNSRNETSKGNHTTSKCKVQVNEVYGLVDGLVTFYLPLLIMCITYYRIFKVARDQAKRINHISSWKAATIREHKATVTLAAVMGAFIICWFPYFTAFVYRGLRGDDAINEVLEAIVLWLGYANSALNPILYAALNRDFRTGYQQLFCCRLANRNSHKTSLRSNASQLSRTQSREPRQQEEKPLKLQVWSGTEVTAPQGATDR
Assay: Histamine H2 radioligand binding ([125I]Aminopotentidine)
Details: 1 μM; inhibition of specific [125I]Aminopotentidine binding; read-out: Binding data (Percentage Inhibition) Histamine Binding (1 μM) H2
Protocol: To evaluate in radioligand binding assays the activity of compounds of the invention, human recombinant histamine H2 receptor expressed in Chinese hamster ovary (CHO) K1 cells (Ruat, M., Proc. Natl. Acad. Sci. USA. 87(5):1658, 1990) in a 50 mM Phosphate buffer, pH 7.4 was used. […] Receptor proteins were filtered and washed, the filters were then counted to determine [^125I]Aminopotentidine specifically bound. […]
QUANTITY: inhibition at 1 µM

> print(dat)
                                   compound                            assayed.system  meas.value
1  CCC1c2c(c3cc(Cl)ccc3n2/C=C(\C)c2ccc(Cl)c(Cl)c2)CCN1C (stereo not drawn) [Compound 116]  human recombinant histamine H2 receptor (Homo sapiens, UniProt P25021)         50%
2  C/C(=C/n1c2c(c3cc(Cl)ccc31)CCN(C)C2C)c1ccccc1F (stereo not drawn) [Compound 167]  human recombinant histamine H2 receptor (Homo sapiens, UniProt P25021)         51%

## Input What value of measured inhibition at 1 µM is listed for COc1ccc(C#Cn2c3c(c4cc(Cl)ccc42)CCN(C)C3)cc1F [Compound 155] ?
## Output 49%

###

molecular target: human recombinant serotonin (5-Hydroxytryptamine) 5-HT6 receptor (Homo sapiens, UniProt P50406); construct: expressed in transfected cells; host or cells: human HeLa cells; experiment: Serotonin 5-HT6 radioligand binding ([3H]LSD); details: 2 h; read-out: Percent Inhibition of ligand binding Serotonin (1 μM ligand concentration) 5-HT6
Sequence (P50406 whole entry): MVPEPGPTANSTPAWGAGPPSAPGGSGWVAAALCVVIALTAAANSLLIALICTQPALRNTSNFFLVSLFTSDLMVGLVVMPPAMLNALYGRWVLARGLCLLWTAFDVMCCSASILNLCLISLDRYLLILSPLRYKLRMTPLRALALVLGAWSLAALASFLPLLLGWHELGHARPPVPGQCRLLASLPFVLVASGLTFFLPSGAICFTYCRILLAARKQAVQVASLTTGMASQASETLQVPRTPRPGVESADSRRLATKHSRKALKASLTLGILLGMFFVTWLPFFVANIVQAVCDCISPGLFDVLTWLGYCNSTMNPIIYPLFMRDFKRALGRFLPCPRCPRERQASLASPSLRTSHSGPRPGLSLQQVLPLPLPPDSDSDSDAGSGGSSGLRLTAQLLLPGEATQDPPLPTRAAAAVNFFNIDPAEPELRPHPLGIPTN
Examples of compounds with documented inhibition at 1 µM follow.
Express the result in % but write the number alone.

> print(dat)
                                   compound            quantity  meas.value
1     Cc1ccc2c(c1)c1c(n2CCC2CCCCC2)CN(C)CC1  inhibition at 1 µM          58
2  CN1CCc2c(n(CC(=O)N3CCCCC3)c3ccc(Cl)cc23)C1  inhibition at 1 µM          -7
3  CN1CCc2c(n(CCCC(=O)N3CCCCC3)c3ccc(Cl)cc23)C1  inhibition at 1 µM          12
4  Cc1ccc(C(O)Cn2c3c(c4cc(C)ccc42)CCN(C)C3)cc1 (stereo not drawn)  inhibition at 1 µM          61

## Input What value of measured inhibition at 1 µM is listed for C/C(=C\n1c2c(c3cc(C)ccc31)CCN(C)C2C)c1ccccc1F (stereo not drawn) ?
## Output 95

## Input What value of measured inhibition at 1 µM is listed for CCC1c2c(c3cc(Cl)ccc3n2/C=C(\C)c2cccnc2)CCN1C (stereo not drawn) ?
## Output 6

###

target: human recombinant histamine H1 receptor (Homo sapiens, UniProt P35367); construct: expressed in transfected cells; host or cells: CHO cells; assay: Histamine H1 radioligand binding ([3H]Pyrilamine); conditions: 1 μM; read-out: Binding data (Percentage Inhibition) Histamine Binding (1 μM) H1
Sequence (P35367 whole entry): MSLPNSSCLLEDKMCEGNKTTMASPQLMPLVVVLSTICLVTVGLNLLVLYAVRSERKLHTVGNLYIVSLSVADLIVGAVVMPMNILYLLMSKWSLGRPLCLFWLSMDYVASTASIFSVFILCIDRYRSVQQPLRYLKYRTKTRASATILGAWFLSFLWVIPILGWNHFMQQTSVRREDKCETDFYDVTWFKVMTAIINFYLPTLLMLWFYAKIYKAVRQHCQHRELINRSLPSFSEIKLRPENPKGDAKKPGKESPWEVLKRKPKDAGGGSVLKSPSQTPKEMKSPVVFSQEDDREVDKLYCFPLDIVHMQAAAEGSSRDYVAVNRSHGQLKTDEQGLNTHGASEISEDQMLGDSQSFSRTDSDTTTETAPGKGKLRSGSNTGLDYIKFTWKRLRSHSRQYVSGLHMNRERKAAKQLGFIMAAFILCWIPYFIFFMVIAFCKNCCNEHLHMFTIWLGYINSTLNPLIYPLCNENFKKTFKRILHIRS
QUANTITY: inhibition at 1 µM (%)
Express the result in % but write the number alone.

For orientation, consider the following solved cases.
> print(dat)
                                   molecule                            assayed.system  meas.value
1  CN1CCc2c(n(CC(=O)N3CCCC3)c3ccc(Cl)cc23)C1  human recombinant histamine H1 receptor (Homo sapiens, UniProt P35367)           7
2        Cc1ccc2c(c1)c1c(n2CC(=O)O)CN(C)CC1  human recombinant histamine H1 receptor (Homo sapiens, UniProt P35367)           5
3  CN1CCc2c(n(CC(=O)N3CCNCC3)c3ccc(Cl)cc23)C1  human recombinant histamine H1 receptor (Homo sapiens, UniProt P35367)          90
4  CCC1c2c(c3cc(C)ccc3n2C(=O)Cc2ccc(F)cc2)CCN1C (stereo not shown)  human recombinant histamine H1 receptor (Homo sapiens, UniProt P35367)           5
5     CN1CCc2c(n(CCC3CCCC3)c3ccc(Cl)cc23)C1  human recombinant histamine H1 receptor (Homo sapiens, UniProt P35367)          98

## Input What value of measured inhibition at 1 µM is listed for `C/C(=C\n1c2c(c3cc(C)ccc31)CCN(C)C2)c1ccc(F)c(F)c1` ?
## Output 20

## Input What value of measured inhibition at 1 µM is listed for `CC1CCN(C(=O)Cn2c3c(c4cc(Cl)ccc42)CCN(C)C3)CC1` ?
## Output 16

## Input What value of measured inhibition at 1 µM is listed for Cc1ccc2c(c1)c1c(n2CC(O)c2ccccc2)CN(C)CC1 (stereo not shown) ?
## Output 35

## Input What value of measured inhibition at 1 µM is listed for `CN1CCc2c(n(CC(=O)Nc3ccc(F)cc3)c3ccc(Cl)cc23)C1` ?
## Output 0

## Input What value of measured inhibition at 1 µM is listed for `C/C(=C\n1c2c(c3cc(Cl)ccc31)CCN(C)C2)c1ccc(Cl)c(Cl)c1` ?
## Output 30

## Input What value of measured inhibition at 1 µM is listed for CCC1c2c(c3cc(Cl)ccc3n2CCc2ccc(F)cc2)CCN1C (stereo not shown) ?
## Output 71

## Input What value of measured inhibition at 1 µM is listed for C/C(=C\n1c2c(c3cc(Cl)ccc31)CCN(C)C2C)c1ccccc1F (stereo not shown) ?
## Output 85

## Input What value of measured inhibition at 1 µM is listed for CCC1c2c(c3cc(C)ccc3n2/C=C(\C)c2ccc(Cl)c(Cl)c2)CCN1C (stereo not shown) ?
## Output 11

## Input What value of measured inhibition at 1 µM is listed for C/C(=C\n1c2c(c3cc(Cl)ccc31)CCN(C)C2C)c1ccc(Cl)cc1 (stereo not shown) ?
## Output 65

## Input What value of measured inhibition at 1 µM is listed for `Cc1ccc2c(c1)c1c(n2C#Cc2ccc(Cl)cc2)CN(C)CC1` ?
## Output 5

## Input What value of measured inhibition at 1 µM is listed for `COc1ccc(C#Cn2c3c(c4cc(Cl)ccc42)CCN(C)C3)cc1F` ?
## Output 2

## Input What value of measured inhibition at 1 µM is listed for Cc1ccc(C(O)Cn2c3c(c4cc(C)ccc42)CCN(C)C3)cc1 (stereo not shown) ?
## Output 55

###

Biological target: human recombinant adrenergic α1D receptor (Homo sapiens)
Construct: expressed in transfected cells; host or cells: HEK-293 cells
Sequence (P25100 1-572): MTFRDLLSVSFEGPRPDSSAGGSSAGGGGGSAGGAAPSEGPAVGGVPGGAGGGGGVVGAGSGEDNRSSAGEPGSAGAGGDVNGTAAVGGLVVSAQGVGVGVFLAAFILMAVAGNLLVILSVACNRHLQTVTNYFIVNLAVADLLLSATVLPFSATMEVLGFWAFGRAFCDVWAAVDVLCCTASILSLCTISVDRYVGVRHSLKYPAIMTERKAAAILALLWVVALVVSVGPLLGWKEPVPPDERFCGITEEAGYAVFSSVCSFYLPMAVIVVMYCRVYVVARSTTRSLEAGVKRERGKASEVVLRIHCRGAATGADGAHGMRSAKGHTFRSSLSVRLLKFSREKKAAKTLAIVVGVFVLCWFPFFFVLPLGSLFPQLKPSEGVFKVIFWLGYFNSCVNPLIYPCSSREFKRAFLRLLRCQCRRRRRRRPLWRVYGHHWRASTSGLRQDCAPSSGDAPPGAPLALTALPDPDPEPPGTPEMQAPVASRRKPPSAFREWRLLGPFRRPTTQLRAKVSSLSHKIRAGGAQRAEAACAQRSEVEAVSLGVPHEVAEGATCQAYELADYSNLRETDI
Assay: Adrenergic α1D radioligand binding ([3H]Prozosin)
Settings: 1 h; read-out: Percent Inhibition of ligand binding Adrenergic (1 μM ligand conc.) α1D
Procedure: To evaluate in radioligand binding assays the activity of compounds of the invention, human recombinant adrenergic a1D receptor expressed in human embryonic kidney (HEK-293) cells (Kenny, B. A. et al. Br. J. Pharmacol. 115(6):981, 1995) in a 50 mM Tris-HCl buffer, pH 7.4, was used. Compounds of invention were incubated with 0.6 nM [^3H]Prozosin for 60 minutes at 25° C. […] Receptor proteins were filtered and washed, the filters were then counted to determine [^3H]Prozosin specifically bound. […]
Mark rule not met for inhibition at 1 µM values under 40%, and rule met for everything at or above.

Answered examples (2):
> print(dat)
                                   molecule                            assayed.system  classification
1  CN1CCc2c(n(CCCC(=O)N3CCCCC3)c3ccc(Cl)cc23)C1 [Compound 44]  human recombinant adrenergic α1D receptor (Homo sapiens)        rule met
2  CN1CCc2c(n(CC(=O)N3CCCC3)c3ccc(Cl)cc23)C1 [Compound 40]  human recombinant adrenergic α1D receptor (Homo sapiens)    rule not met

## Input State whether the measured inhibition at 1 µM reaches 40%, counting equality as reaching it, for CN1CCc2c(n(CC(=O)NC3CCCCC3)c3ccc(Cl)cc23)C1 [Compound 17]
## Output rule not met

## Input State whether the measured inhibition at 1 µM reaches 40%, counting equality as reaching it, for Cc1ccc2c(c1)c1c(n2CC(=O)O)CN(C)CC1 [Compound 53]
## Output rule not met

## Input State whether the measured inhibition at 1 µM reaches 40%, counting equality as reaching it, for CN1CCc2c(n(CC(=O)Nc3ccc(F)cc3)c3ccc(Cl)cc23)C1 [Compound 15]
## Output rule not met

## Input State whether the measured inhibition at 1 µM reaches 40%, counting equality as reaching it, for CN1CCc2c(n(CC(O)c3ccccc3)c3ccc(Cl)cc23)C1 (centres unmarked) [Compound 71]
## Output rule met

## Input State whether the measured inhibition at 1 µM reaches 40%, counting equality as reaching it, for CCC1c2c(c3cc(Cl)ccc3n2/C=C(\C)c2ccc(Cl)cc2)CCN1C (centres unmarked) [Compound 100]
## Output rule not met

## Input State whether the measured inhibition at 1 µM reaches 40%, counting equality as reaching it, for CC1c2c(c3cc(Cl)ccc3n2C#Cc2ccc(F)cc2)CCN1C (centres unmarked) [Compound 128]
## Output rule not met

## Input State whether the measured inhibition at 1 µM reaches 40%, counting equality as reaching it, for Cc1ccc(C(O)Cn2c3c(c4cc(C)ccc42)CCN(C)C3)cc1 (centres unmarked) [Compound 72]
## Output rule met

## Input State whether the measured inhibition at 1 µM reaches 40%, counting equality as reaching it, for COc1ccc(C(O)Cn2c3c(c4cc(Cl)ccc42)CCN(C)C3)cc1OC (centres unmarked) [Compound 70]
## Output rule met

## Input State whether the measured inhibition at 1 µM reaches 40%, counting equality as reaching it, for C/C(=C\n1c2c(c3cc(Cl)ccc31)CCN(C)C2)c1ccc(F)cc1 [Compound 90]
## Output rule met
